# inhibition at 0.1 µM per entry
assay_target: PARS (Mus musculus)
Construct: endogenous in cells; host or cells: RAW mouse macrophages
Sequence (P11103 whole entry): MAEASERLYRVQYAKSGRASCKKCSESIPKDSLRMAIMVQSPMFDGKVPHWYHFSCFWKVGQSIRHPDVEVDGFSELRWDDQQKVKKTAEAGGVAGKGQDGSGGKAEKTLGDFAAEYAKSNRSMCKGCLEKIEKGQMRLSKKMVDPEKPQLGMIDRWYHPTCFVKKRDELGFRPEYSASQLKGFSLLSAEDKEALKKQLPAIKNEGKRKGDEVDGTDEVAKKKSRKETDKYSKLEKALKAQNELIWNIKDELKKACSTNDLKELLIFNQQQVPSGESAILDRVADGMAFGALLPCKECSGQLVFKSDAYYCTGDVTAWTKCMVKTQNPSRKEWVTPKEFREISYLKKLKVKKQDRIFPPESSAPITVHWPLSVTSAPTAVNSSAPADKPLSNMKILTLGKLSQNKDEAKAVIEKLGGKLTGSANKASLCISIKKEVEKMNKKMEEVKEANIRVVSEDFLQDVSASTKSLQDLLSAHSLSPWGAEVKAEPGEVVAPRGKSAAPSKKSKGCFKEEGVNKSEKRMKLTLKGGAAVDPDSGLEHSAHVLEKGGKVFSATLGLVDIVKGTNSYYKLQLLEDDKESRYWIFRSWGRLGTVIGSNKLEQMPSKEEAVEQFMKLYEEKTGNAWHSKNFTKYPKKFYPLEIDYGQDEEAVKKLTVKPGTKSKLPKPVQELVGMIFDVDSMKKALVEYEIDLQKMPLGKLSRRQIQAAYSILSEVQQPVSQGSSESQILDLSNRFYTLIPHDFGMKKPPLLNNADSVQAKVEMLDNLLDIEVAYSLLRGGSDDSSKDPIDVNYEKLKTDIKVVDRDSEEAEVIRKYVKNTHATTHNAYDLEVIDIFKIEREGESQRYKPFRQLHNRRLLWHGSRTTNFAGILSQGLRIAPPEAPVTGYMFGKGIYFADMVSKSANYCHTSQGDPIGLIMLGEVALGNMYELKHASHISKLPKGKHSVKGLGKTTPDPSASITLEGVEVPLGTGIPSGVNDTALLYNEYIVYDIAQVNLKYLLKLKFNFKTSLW
experiment_summary: PARS activation in peroxynitrite-treated cultured macrophages (whole-cell 3H-NAD+ assay)
Type: cell-based
condition_context: 100 nM, cultured murine macrophages

Example cases with answers are listed next.
> print(dat)
                                   molecule  value.measured
1  O=c1[nH]c2c(c3ccccc13)C(O)c1ccccc1-2 (racemic)              8%
2  NS(=O)(=O)c1ccc2c3[nH]c(=O)c4ccccc4c3n(S(N)(=O)=O)c2c1 [Compound 35a]             14%
3         O=c1[nH]c2c(c3ccccc13)Cc1ccccc1-2             30%
4  O=c1[nH]c2c(c3ccccc13)C(Br)c1ccccc1-2 (racemic)             51%
5       O=C1c2ccccc2-c2[nH]c(=O)c3ccccc3c21             16%

Problem: What inhibition at 0.1 µM value was documented for this molecule, CCN(CC)C1c2ccccc2-c2[nH]c(=O)c3ccccc3c21 (racemic) ?
Result: 0%

Problem: What inhibition at 0.1 µM value was documented for this molecule, O=c1[nH]c2c(c3ccccc13)Cc1cc(S(=O)(=O)Cl)ccc1-2 ?
Result: 0%

Problem: What inhibition at 0.1 µM value was documented for this molecule, O=c1[nH]c2c3ccccc3[nH]c2c2ccccc12 [Compound 31, 6H,11H-Indolo[3,2-c]Isoquinoline-5-one] ?
Result: 18%

Problem: What inhibition at 0.1 µM value was documented for this molecule, O=c1[nH]c2c(c3ccccc13)C(N1CCOCC1)c1ccccc1-2 (racemic) ?
Result: 0%

All values here come from patent US20050228007A1.
